# Tested on: Pseudomonas aeruginosa
# Assay Explanation: Antibacterial activity against Pseudomonas aeruginosa at 100 ug/disk by agar plate disk diffusion method
# Format: functional
# Measurement Context: read-out: IZ

Molecule | zone of inhibition at 100 µg/disc [mm]
O=c1[nH]c2ccccc2n(CN(c2ccccc2)c2ccccc2)c1=O | 35
O=c1[nH]c2ccccc2n(Cn2cnc3ccccc32)c1=O | 35
CN(C)c1ccc(/C=C/C(=O)n2c(=O)c(=O)[nH]c3ccccc32)cc1 | 31
O=C(/C=C/c1ccccc1)n1c(=O)c(=O)[nH]c2ccccc21 | 29
CC(=O)n1c(=O)c(=O)[nH]c2ccccc21 | 29
O=C1c2ccccc2C(=O)N1Cn1c(=O)c(=O)[nH]c2ccccc21 | 34
CC1=NNC(=O)C1Cn1c(=O)c(=O)[nH]c2ccccc21 (centres undefined) | 39
O=c1[nH]c2ccccc2n(Cn2nnc3ccccc32)c1=O | 39
COc1cc(O)ccc1/C=C/C(=O)n1c(=O)c(=O)[nH]c2ccccc21 | 18
